Each recorded value in this set is attributed to PubChem BioAssay (NCI).

List of growth values.
Tested on: OVCAR-5 ovarian
Experiment: NCI-60 one-dose screen, 48 h (100 = growth as untreated, 0 = no growth, -100 = all killed)
Details: 10 µM unless noted
Protocol: Growth inhibition of the OVCAR-5 human tumor cell line is measured as a screen for anti-cancer activity. Cells are grown in 96 well plates and exposed to the test compound for 48 hours. Compounds are tested at a single concentration, which is 10^-5 M for most compounds. The reported endpoint is percent growth (GI% or GIPRCNT), where numbers from 0 - 100% represent growth inhibition, and numbers from -100% - 0 represent cell death. For example, a value of 40 represents 60% growth inhibition. […]
Compounds without any hit were thinned out: in the full panel of roughly 83,000, 20% have a hit.
Give the value, in units of %, as a plain number.

# COMPOUND, TESTED TARGET, growth / %
records = [
    ("COc1cccc(C(=O)NCCCNc2cc(-c3cn(-c4ccccc4)nc3-c3cccc(OC)c3)ccn2)c1", "OVCAR-5 ovarian", 82.1),
    ("COc1ccc(CNC(=O)C(O)C(Cc2ccccc2)NC(=O)c2[nH]c3ccccc3c(=O)c2C)cc1OC (centres undefined)", "OVCAR-5 ovarian", 98.1),
    ("CCCCCc1nc2c(c3c1CCCC3)CCCC2", "OVCAR-5 ovarian", 67.2),
    ("Cc1ccc(S(=O)(=O)Oc2cc(OS(=O)(=O)c3ccc(C)cc3)cc(OS(=O)(=O)c3ccc(C)cc3)c2)cc1", "OVCAR-5 ovarian", 105),
    ("CNS(=O)(=O)c1n[nH]nc1-c1cc(C(C)(C)C)c(O)c(C(C)(C)C)c1", "OVCAR-5 ovarian", 111),
]

Could you tell me which growth is on file for COc1cc(/C=C/C(=O)c2c(C)nc3ccccc3c2C)ccc1OCCCN1CCN(C(=O)c2ccco2)CC1 ? 95.5

What about this compound? O=C1c2cccc(NCCN=Cc3cc([N+](=O)[O-])ccc3O)c2C(=O)c2c(NCCN=Cc3cc([N+](=O)[O-])ccc3O)cccc21 86.3

// repeat for CCc1c2c(nc3ccc(OC(=O)OCc4ccc(B5OC(C)(C)C(C)(C)O5)cc4)cc13)-c1cc3c(c(=O)n1C2)COC(=O)[C@]3(O)CC and report -16

Another compound: O=C(N/N=C/C=C/c1ccc([N+](=O)[O-])o1)c1cc2ccccc2cc1O -1.58

Another compound to look at: COc1cccc(-c2nn(-c3ccccc3)cc2-c2ccnc(NCCCNC(=O)Nc3ccc(Cl)c(Cl)c3)c2)c1 54.4

---

System: NCI-H226 lung
Test: NCI-60 one-dose screen, 48 h
Conditions: 10 µM unless noted
Compounds without any hit were thinned out: in the full panel of roughly 83,000, 20% have a hit. Calls of active or inactive are those of the source. The calls were made as follows: active = growth percent below 10; inactive = the rest.
Please answer using one outcome listed in y = active, n = inactive

Before answering, review these 3 worked examples.
# COMPOUND, DISCRETE LABEL
measured = [
    ("COc1ccc2[nH]c(O)c(/C=c3/cc4c(c(-c5ccc(F)c(OC)c5)n3)=Nc3ccccc3-4)c2c1", "n"),
    ("NC(N)=Nc1nc2ccccc2n2c1nc1ccccc12", "n"),
    ("CNC(=O)c1cc(Oc2cccc3nc(Nc4ccc(F)c(Cl)c4)ccc23)ccn1", "n"),
]

Can you look up the reported call for Clc1cc(Cl)cc(Nc2ccc3cc(OCCCN4CCOCC4)ccc3n2)c1 for me? n

Consider next the compound Cn1cc(-c2csc(-c3cccc(F)c3)n2)c2cccnc21 in the same way. y

Same lookup for COc1ccc2c(c1)[nH]c(=O)c1c3cccnc3cn21 , please. n
